The entries below come with measured BAF3-FGFR4 pIC50 values attached.
# assay-system: Ba/F3-FGFR4-transfected cells (Homo sapiens)
# Sequence (P22455 whole entry, change not shown): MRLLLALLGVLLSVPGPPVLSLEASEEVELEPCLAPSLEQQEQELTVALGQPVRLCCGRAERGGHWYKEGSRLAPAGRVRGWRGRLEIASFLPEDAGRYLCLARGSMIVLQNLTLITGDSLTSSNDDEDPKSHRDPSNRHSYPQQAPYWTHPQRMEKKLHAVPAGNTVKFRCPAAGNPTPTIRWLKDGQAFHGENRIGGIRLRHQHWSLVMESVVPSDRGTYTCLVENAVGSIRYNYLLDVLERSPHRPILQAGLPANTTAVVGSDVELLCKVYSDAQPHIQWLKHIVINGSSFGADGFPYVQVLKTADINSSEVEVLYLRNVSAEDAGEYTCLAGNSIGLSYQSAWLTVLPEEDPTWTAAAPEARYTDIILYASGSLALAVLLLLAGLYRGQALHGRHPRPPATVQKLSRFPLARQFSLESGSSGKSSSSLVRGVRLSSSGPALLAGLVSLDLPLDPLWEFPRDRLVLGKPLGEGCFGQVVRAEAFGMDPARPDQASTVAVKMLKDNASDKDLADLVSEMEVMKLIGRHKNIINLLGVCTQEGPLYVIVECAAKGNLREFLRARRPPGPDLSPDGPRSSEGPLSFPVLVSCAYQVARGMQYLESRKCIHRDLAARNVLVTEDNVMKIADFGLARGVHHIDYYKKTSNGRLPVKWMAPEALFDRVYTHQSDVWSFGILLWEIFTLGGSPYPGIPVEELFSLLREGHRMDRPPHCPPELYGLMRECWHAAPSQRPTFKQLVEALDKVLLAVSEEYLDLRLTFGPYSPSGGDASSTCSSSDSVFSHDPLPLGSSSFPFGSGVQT
# assay-overview: Ba/F3-FGFR4 cellular proliferation assay, Alamar Blue
# Type: cell-based
Structures can show the parent of a compound that is named as a salt.
Please state the value as a number alone, without comment.

Past entries and their recorded results:
| compound | assay-system | property | result-number |
| --- | --- | --- | --- |
| COc1cc(OC)c(F)c(N(Cc2ncc[nH]2)c2ccc3ncc(-c4cnn(C)c4)nc3n2)c1 [23-fumarate salt] | Ba/F3-FGFR4-transfected cells (Homo sapiens) | BAF3-FGFR4 pIC50 | 7.94 |
| COc1cc(OC)c(F)c(N(Cc2ncc[nH]2)c2ccc3ncc(-c4cnn(C)c4)nc3n2)c1 [23-hydrochloric acid salt] | Ba/F3-FGFR4-transfected cells (Homo sapiens) | BAF3-FGFR4 pIC50 | 7.98 |
| COc1cc(OC)cc(N(Cc2ncc[nH]2)c2ccc3ncc(-c4cnn(C)c4)nc3n2)c1 [24-hydrochloric acid salt] | Ba/F3-FGFR4-transfected cells (Homo sapiens) | BAF3-FGFR4 pIC50 | 7.77 |
| COc1cc(OC)c(F)c(N(Cc2ccnn2C)c2ccc3ncc(-c4cnn(C)c4)nc3n2)c1 | Ba/F3-FGFR4-transfected cells (Homo sapiens) | BAF3-FGFR4 pIC50 | 6.63 |
| CNCCN(c1ccc2ncc(-c3cnn(C)c3)nc2n1)c1c(Cl)c(OC)cc(OC)c1Cl | Ba/F3-FGFR4-transfected cells (Homo sapiens) | BAF3-FGFR4 pIC50 | 5.76 |
| COc1cc(OC)c(F)c(N(CC2CCOC2)c2ccc3ncc(-c4cnn(C)c4)nc3n2)c1 (single isomer, unassigned) [Compound 170] | Ba/F3-FGFR4-transfected cells (Homo sapiens) | BAF3-FGFR4 pIC50 | 6.49 |

Consider the compound COc1cc(OC)c(F)c(N(CCCN2CCCC2=O)c2ccc3ncc(-c4cnn(C)c4)nc3n2)c1F and give its measured BAF3-FGFR4 pIC50.
7.41

* * *

BAF3-FGFR1 (MIN IL3) pIC50 values by entry
# assay-system: Ba/F3-FGFR1-transfected cells (Homo sapiens, UniProt P11362)
# Construct: BAF3-FGFR1 (MIN IL3) pIC50; other: minus IL3
# Sequence (P11362 whole entry, change not shown): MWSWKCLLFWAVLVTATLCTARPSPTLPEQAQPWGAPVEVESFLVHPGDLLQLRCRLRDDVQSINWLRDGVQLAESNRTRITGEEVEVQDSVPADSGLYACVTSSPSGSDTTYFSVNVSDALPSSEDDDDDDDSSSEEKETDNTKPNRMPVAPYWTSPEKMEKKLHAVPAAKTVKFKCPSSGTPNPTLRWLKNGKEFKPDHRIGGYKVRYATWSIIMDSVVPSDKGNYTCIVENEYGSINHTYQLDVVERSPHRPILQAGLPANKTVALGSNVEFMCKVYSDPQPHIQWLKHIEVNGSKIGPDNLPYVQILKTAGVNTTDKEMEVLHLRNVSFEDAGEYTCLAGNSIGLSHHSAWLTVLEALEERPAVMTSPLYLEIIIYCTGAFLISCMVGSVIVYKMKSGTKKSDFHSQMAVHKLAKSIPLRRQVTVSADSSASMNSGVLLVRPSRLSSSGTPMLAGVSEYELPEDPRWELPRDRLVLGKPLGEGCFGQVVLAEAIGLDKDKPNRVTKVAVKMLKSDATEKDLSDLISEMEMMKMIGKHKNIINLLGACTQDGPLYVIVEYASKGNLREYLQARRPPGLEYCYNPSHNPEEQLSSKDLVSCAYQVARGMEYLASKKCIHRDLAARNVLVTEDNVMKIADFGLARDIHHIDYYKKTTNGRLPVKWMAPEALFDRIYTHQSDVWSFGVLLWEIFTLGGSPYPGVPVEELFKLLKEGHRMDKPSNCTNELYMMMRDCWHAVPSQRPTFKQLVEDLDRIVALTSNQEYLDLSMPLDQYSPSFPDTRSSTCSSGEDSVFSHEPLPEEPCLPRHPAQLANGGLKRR
# assay-overview: Ba/F3-FGFR1 (minus IL3) cellular proliferation assay, Alamar Blue
# Format: cell-based
Lab note: jot down the number only; don't add units.

Here's what some known entries look like.
| compound | assay-system | BAF3-FGFR1 (MIN IL3) pIC50 |
| --- | --- | --- |
| COc1cc(OC)c(F)c(N(CCCO)c2ccc3ncc(-c4cnn(C)c4)nc3n2)c1F (single isomer, unassigned) | Ba/F3-FGFR1-transfected cells (Homo sapiens, UniProt P11362) | 8.0 |
| COc1ccc(Cl)c(N(CC2CCC(=O)N2)c2ccc3ncc(-c4cnn(C)c4)nc3n2)c1Cl (centres unmarked) [Compound 94] | Ba/F3-FGFR1-transfected cells (Homo sapiens, UniProt P11362) | 5.52 |
| COc1cc(OC)c(F)c(N(Cc2c[nH]cn2)c2ccc3ncc(-c4cnn(C)c4)nc3n2)c1 | Ba/F3-FGFR1-transfected cells (Homo sapiens, UniProt P11362) | 7.99 |
| COc1cc(/N=c2\ccc3ncc(-c4cnn(C)c4)nc3n2CC2CC(O)C(=O)N2)cc(OC)c1 (centres unmarked) | Ba/F3-FGFR1-transfected cells (Homo sapiens, UniProt P11362) | 6.54 |
| COc1cc(OC)c(F)c(N(Cc2ncc[nH]2)c2ccc3ncc(N4CCOCC4)nc3n2)c1 | Ba/F3-FGFR1-transfected cells (Homo sapiens, UniProt P11362) | 8.03 |

Can you look up BAF3-FGFR1 (MIN IL3) pIC50 on Ba/F3-FGFR1-transfected cells (Homo sapiens, UniProt P11362) for Cn1cc(-c2cnc3ccc(N(Cc4ncc[nH]4)c4cc(F)cc(F)c4)nc3n2)cn1 ?
6.14

Lab note: need BAF3-FGFR1 (MIN IL3) pIC50 with Ba/F3-FGFR1-transfected cells (Homo sapiens, UniProt P11362) for entry COCC(O)CN(c1cc(OC)cc(OC)c1)c1ccc2ncc(-c3cnn(C)c3)nc2n1 (centres unmarked) , please look it up.
7.0

Enter reported BAF3-FGFR1 (MIN IL3) pIC50 observed with Ba/F3-FGFR1-transfected cells (Homo sapiens, UniProt P11362) for COc1cc(OC)cc(N(CCNC(C)C)c2ccc3ncc(-c4cnn(C)c4)nc3n2)c1
8.5

* * *

# assay-system: Ba/F3-FGFR1-transfected cells (Homo sapiens)
# Construct: BAF3-FGFR1 (MIN IL3) pIC50; other: minus IL3
# assay-overview: Ba/F3-FGFR1 (minus IL3) cellular proliferation assay, Alamar Blue
# Format: cell-based
Here, each record is paired with measured BAF3-FGFR1 (MIN IL3) pIC50 data.
Give your answer as a number; write no unit.

| compound | BAF3-FGFR1 (MIN IL3) pIC50 |
| --- | --- |
| COc1cc(OC)c(F)c(N(Cc2ccnn2C)c2ccc3ncc(-c4cnn(C)c4)nc3n2)c1 [Compound 113] | 7.19 |

Requested read-out: BAF3-FGFR1 (MIN IL3) pIC50. Entry: COc1cc(/N=c2\ccc3ncc(-c4cnn(C)c4)nc3n2CC2CCC(=O)N2CCO)c(F)c(OC)c1 (single isomer, unassigned) [Compound 219]
7.77

Look up BAF3-FGFR1 (MIN IL3) pIC50 for this compound: COc1cc(OC)c(F)c(N(Cc2ncc[nH]2)c2ccc3ncc(-c4cnn(Cc5ncc[nH]5)c4)nc3n2)c1 [Compound 100]
8.02

Name the recorded BAF3-FGFR1 (MIN IL3) pIC50 for COc1cc(OC)cc(N(CCN2CCCC2=O)c2ccc3ncc(-c4cnn(C)c4)nc3n2)c1 [Compound 151] .
5.56

* * *

# assay-system: Ba/F3-Flt3-transfected cells (Homo sapiens, UniProt P36888, cells depend on it, form not given)
# Construct: BAF3-FLT3 (MIN IL3) pIC50; other: minus IL3
# assay-overview: Ba/F3-Flt3 (minus IL3) cellular proliferation assay, Alamar Blue
# Assay type: cell-based
property: BAF3-FLT3 (MIN IL3) pIC50

These solved cases illustrate the format of a correct answer.
| compound | property | result |
| --- | --- | --- |
| COc1cc(OC)c(F)c(N(Cc2ncccn2)c2ccc3ncc(-c4cnn(C)c4)nc3n2)c1 | BAF3-FLT3 (MIN IL3) pIC50 | <5 |
| COc1cc(OC)c(F)c(N(Cc2cnccn2)c2ccc3ncc(-c4cnn(C)c4)nc3n2)c1F | BAF3-FLT3 (MIN IL3) pIC50 | 5.12 |
| CNCCN(c1ccc2ncc(-c3cnn(C)c3)nc2n1)c1cc(OC)cc(OC)c1F | BAF3-FLT3 (MIN IL3) pIC50 | <5 |
| COc1cc(OC)c(F)c(N(CCCO)c2ccc3ncc(-c4cnn(C)c4)nc3n2)c1F (single isomer, unassigned) | BAF3-FLT3 (MIN IL3) pIC50 | 5.18 |
| COCC(O)CN(c1cc(OC)cc(OC)c1)c1ccc2ncc(-c3cnn(C)c3)nc2n1 (centres unmarked) | BAF3-FLT3 (MIN IL3) pIC50 | <5 |

Any idea what its BAF3-FLT3 (MIN IL3) pIC50 is? The compound is Cn1cc(-c2cnc3ccc(N(Cc4ncc[nH]4)c4cc(F)cc(F)c4)nc3n2)cn1
<5

I'd like to know its BAF3-FLT3 (MIN IL3) pIC50. The compound in question is COc1cc(OC)c(F)c(N(CCO)c2ccc3ncc(-c4cnn(C)c4)nc3n2)c1F
5.23

Can you look up the measured BAF3-FLT3 (MIN IL3) pIC50 of CNCCn1/c(=N/c2cc(OC)cc(OC)c2F)ccc2ncc(-c3cnn(C)c3)nc21 for me?
<5

Look up BAF3-FLT3 (MIN IL3) pIC50 for this compound: COc1cc(OC)c(F)c(N(Cc2cn(S(=O)(=O)N(C)C)cn2)c2ccc3ncc(-c4cnn(C)c4)nc3n2)c1
<5

# query: BAF3-FLT3 (MIN IL3) pIC50 of entry COc1cc(OC)cc(N(CC#Cc2ncccc2OC)c2ccc3ncc(-c4cnn(C)c4)nc3n2)c1
<5

Request the reported BAF3-FLT3 (MIN IL3) pIC50 associated with COc1cc(/N=c2\ccc3ncc(-c4cnn(C)c4)nc3n2CCNC(C)C)c(F)c(OC)c1
<5

* * *

# assay-system: UniProt P11362
# assay-overview: FGFR1 (enzymatic assay), TR-FRET
# Assay type: biochemical
# study-conditions: read-out: FGFR 1 pIC50 (converted)
property: IC50
Answer with the number, then the unit.

Consider the following illustrative entries.
| molecule | result |
| --- | --- |
| COc1cc(OC)c(F)c(N(Cc2ccn(C)n2)c2ccc3ncc(-c4cnn(C)c4)nc3n2)c1 | 1.32 nM |
| COc1cc(/N=c2\ccc3ncc(-c4cnn(C)c4)nc3n2CCCN2CCCC2=O)c(F)c(OC)c1 | 1.41 nM |
| COc1cc(OC)cc(N(Cc2ncc[nH]2)c2ccc3ncc(N4CCOCC4)nc3n2)c1 | 1.62 nM |
| COc1cc(OC)c(F)c(N(Cc2nccn2CCO)c2ccc3ncc(-c4cnn(C)c4)nc3n2)c1 | 3.24 nM |
| COc1cc(/N=c2\ccc3ncc(-c4cnn(C)c4)nc3n2CCNC(C)=O)c(F)c(OC)c1 | 0.977 nM |

Which IC50 is listed for COc1cc(OC)c(F)c(N(CC(C)(C)O)c2ccc3ncc(-c4cnn(CC(C)(C)O)c4)nc3n2)c1 (single isomer, unassigned) ?
3.63 nM

Report IC50 for COc1cc(OC)c(F)c(N(CC(O)c2cnn(C)c2)c2ccc3ncc(-c4cnn(C)c4)nc3n2)c1 (centres unmarked) please.
5.89 nM

Could you share which IC50 value was measured for CNCCn1ccnc1CN(c1ccc2ncc(-c3cnn(C)c3)nc2n1)c1cc(OC)cc(OC)c1F ?
4.37 nM
